Data origin: patent US10519134B2

Target Desc: MAGL (Mus musculus, UniProt O35678)
Construct: Proteomes (mouse brain membrane fraction or cell lysates); from tissue; host or cells: mouse brain membrane fraction (or cell lysates)
Sequence (O35678 1-303): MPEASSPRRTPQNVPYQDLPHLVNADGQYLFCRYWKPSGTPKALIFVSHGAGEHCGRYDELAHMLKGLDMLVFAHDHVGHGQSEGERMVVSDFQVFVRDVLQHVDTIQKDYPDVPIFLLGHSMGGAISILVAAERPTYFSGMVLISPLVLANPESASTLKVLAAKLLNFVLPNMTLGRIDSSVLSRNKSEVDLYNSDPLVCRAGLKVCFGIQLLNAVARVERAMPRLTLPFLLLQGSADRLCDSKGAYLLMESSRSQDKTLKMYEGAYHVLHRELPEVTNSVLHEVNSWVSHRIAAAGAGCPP
Protocol Notes: Mouse brain proteomes from inhibitor treated mice (oral gavage, sacrificed 4 h after administration)
Assay type: in vivo
Study Conditions: read-out: MAGL % inh. 5 mg/kg
Listed compounds paired with reported inhibition at 5 mg/kg

Completed entries (count: 3):
[
  {
    "Input Smiles": "CS(=O)(=O)Nc1ccn(C(=O)N2CCN(Cc3ccc(N4CCCC4)c(C(F)(F)F)c3)CC2)n1",
    "inhibition at 5 mg/kg": "≥ 75%"
  },
  {
    "Input Smiles": "CS(=O)(=O)Nc1ccn(C(=O)N2CCN(Cc3ccc(C(F)(F)F)c(N4C5CCC4COC5)c3)CC2)n1",
    "inhibition at 5 mg/kg": "25 to 50%"
  },
  {
    "Input Smiles": "[2H]C([2H])([2H])c1cc(CN2CCCC23CCN(C(=O)n2ccc(NC(C)=O)n2)CC3)ccc1Cl",
    "inhibition at 5 mg/kg": "≥ 75%"
  }
]

From here, focus on the item given below.
State the recorded inhibition at 5 mg/kg for this entry: `CC(=O)Nc1ccn(C(=O)N2CCC3(CCCN3Cc3cc(N4CCCC4)cc(C(F)(F)F)c3)CC2)n1` 0 to 25%

* * *

Target Desc: MAGL (Mus musculus, UniProt O35678)
Construct: Proteomes (mouse brain membrane fraction or cell lysates); from tissue; host or cells: mouse brain membrane fraction (or cell lysates)
Protocol Notes: Mouse brain proteomes from inhibitor treated mice (oral gavage, sacrificed 4 h after administration)
Assay type: in vivo
Study Conditions: read-out: MAGL % inh. 5 mg/kg
Listed molecules paired with reported inhibition at 5 mg/kg

Completed entries (count: 3):
[
  {
    "Molecule": "CC(=O)Nc1ccn(C(=O)N2CCN(Cc3ccc(C(F)(F)F)cc3Oc3cncnc3)CC2)n1 [Example 73]",
    "inhibition at 5 mg/kg": "0 to 25%"
  },
  {
    "Molecule": "CC(=O)Nc1ccn(C(=O)N2CCC3(CCCN3Cc3ccc(N4CCCC4)c(C(F)(F)F)c3)CC2)n1 [Example 102]",
    "inhibition at 5 mg/kg": "0 to 25%"
  },
  {
    "Molecule": "CS(=O)(=O)Nc1ccn(C(=O)N2CCN(Cc3ccc(Cl)c(N4CCCC4)c3)CC2)n1 [Example 165]",
    "inhibition at 5 mg/kg": "≥ 75%"
  }
]

State the recorded inhibition at 5 mg/kg for this entry: CC(=O)Nc1ccn(C(=O)N2CCN(Cc3ccc(C(F)(F)F)cc3N3CCN(C4CC4)CC3)CC2)n1 [Example 47] 25 to 50%

Quick one: CS(=O)(=O)Nc1ccn(C(=O)N2CCN(Cc3cccc(Cl)c3N3CC4CCC(C3)O4)CC2)n1 [Example 288] 0 to 25%

Quick one: CC(=O)Nc1ccn(C(=O)N2CCN(Cc3ccc(Cl)cc3N3CCN(C4CC4)CC3)CC2)n1 [Example 58] ≥ 75%

* * *

Listed compounds paired with reported IC50
Target Desc: MAGL (Mus musculus, UniProt O35678)
Construct: Proteomes (mouse brain membrane fraction or cell lysates)
Protocol Notes: In vitro competitive activity-based protein profiling (mouse), MAGL gel band
Study Conditions: mouse

Completed entries (count: 3):
[
  {
    "Input Smiles": "CS(=O)(=O)Nc1ccn(C(=O)N2CCC3(CCCN3Cc3cccc(N4CC5CCC(C4)O5)c3Cl)CC2)n1",
    "IC50": "100 to 1000 nM"
  },
  {
    "Input Smiles": "CS(=O)(=O)Nc1ccn(C(=O)N2CCN(Cc3cccc(Cl)c3N3CC4CCC(C3)O4)CC2)n1",
    "IC50": "≤ 100 nM"
  },
  {
    "Input Smiles": "CC(=O)Nc1ccn(C(=O)N2CCC3(CCCN3Cc3ccc(Cl)cc3N3CCC(F)(F)CC3)CC2)n1",
    "IC50": "100 to 1000 nM"
  }
]

State the recorded IC50 for this entry: `CS(=O)(=O)Nc1ccn(C(=O)N2CCN(Cc3ccc(C(F)(F)F)cc3N3CCOCC3)CC2)n1` 100 to 1000 nM

Quick one: `Cc1cc(-c2ccccc2)ccc1CN1CCN(C(=O)n2ccc(NS(C)(=O)=O)n2)CC1` 100 to 1000 nM

Quick one: `CS(=O)(=O)Nc1ccn(C(=O)N2CCN(Cc3ccc(-c4ccccc4)cc3Cl)CC2)n1` ≤ 100 nM

Quick one: `CC(=O)Nc1ccn(C(=O)N2CCC3(CCCN3Cc3ccc(C(F)(F)F)cc3N3CCC(F)CC3)CC2)n1` ≤ 100 nM

* * *

Listed compounds paired with reported inhibition at 1 µM
Target Desc: FAAH (Mus musculus)
Construct: Proteomes (mouse brain membrane fraction or cell lysates); from tissue; host or cells: mouse brain membrane fraction (or cell lysates)
Sequence (O08914 whole entry): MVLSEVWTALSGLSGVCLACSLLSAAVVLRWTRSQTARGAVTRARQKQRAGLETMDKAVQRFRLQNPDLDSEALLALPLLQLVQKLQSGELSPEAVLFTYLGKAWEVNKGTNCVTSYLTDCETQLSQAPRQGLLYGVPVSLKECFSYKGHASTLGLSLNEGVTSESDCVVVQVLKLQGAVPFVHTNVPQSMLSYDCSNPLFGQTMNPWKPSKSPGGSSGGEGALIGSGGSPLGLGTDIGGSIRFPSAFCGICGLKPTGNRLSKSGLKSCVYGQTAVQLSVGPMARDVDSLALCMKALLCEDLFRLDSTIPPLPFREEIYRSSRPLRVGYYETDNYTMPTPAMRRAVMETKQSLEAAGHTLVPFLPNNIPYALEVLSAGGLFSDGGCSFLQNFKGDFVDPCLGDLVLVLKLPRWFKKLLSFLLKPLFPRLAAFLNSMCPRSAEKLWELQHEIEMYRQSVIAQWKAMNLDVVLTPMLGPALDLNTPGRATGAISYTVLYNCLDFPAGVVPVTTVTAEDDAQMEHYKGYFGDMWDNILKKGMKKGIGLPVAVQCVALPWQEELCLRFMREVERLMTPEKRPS
Protocol Notes: In vitro competitive activity-based protein profiling (mouse), FAAH gel band
Type: biochemical
Study Conditions: read-out: FAAH % inh. 1 μM

Completed entries (count: 3):
[
  {
    "Compound": "CC(=O)Nc1ccn(C(=O)N2CCC3(CCCN3Cc3ccc(C(F)(F)F)cc3N3CCC4(CC3)CCN(S(C)(=O)=O)C4)CC2)n1 [Example 26]",
    "Quantity Name": "inhibition at 1 µM",
    "Result Value": "0 to 25%"
  },
  {
    "Compound": "CS(=O)(=O)Nc1ccn(C(=O)N2CCC3(CCCN3Cc3cc(N4CCC(C(=O)O)CC4)cc(C(F)(F)F)c3)CC2)n1 [Example 246]",
    "Quantity Name": "inhibition at 1 µM",
    "Result Value": "0 to 25%"
  },
  {
    "Compound": "CC(=O)Nc1ccn(C(=O)N2CCN(Cc3ccc(C(F)(F)F)cc3N3CCC4(CCOCC4)C3)CC2)n1 [Example 45]",
    "Quantity Name": "inhibition at 1 µM",
    "Result Value": "0 to 25%"
  }
]

State the recorded inhibition at 1 µM for this entry: CC(=O)Nc1ccn(C(=O)N2CCN(Cc3ccc(C(F)(F)F)cc3N3CCN4CCC[C@H]4C3)CC2)n1 [Example 267] 0 to 25%

Quick one: CS(=O)(=O)Nc1ccn(C(=O)N2CCN(Cc3ccc(-c4ccccc4)cc3OCc3ccccc3)CC2)n1 [Example 183] 0 to 25%

Quick one: CC(=O)Nc1ccn(C(=O)N2CCN(Cc3ccc(C(F)(F)F)cc3C3CCN(CC(=O)O)CC3)CC2)n1 [Example 285] 0 to 25%

Quick one: CC(=O)Nc1ccn(C(=O)N2CCN(Cc3ccc(C(F)(F)F)cc3N3CCC(F)CC3)CC2)n1 [Example 4] 0 to 25%

* * *

Target Desc: MAGL (Mus musculus)
Construct: Proteomes (mouse brain membrane fraction or cell lysates)
Protocol Notes: In vitro competitive activity-based protein profiling (mouse), MAGL gel band
Study Conditions: mouse
Quantity Name: IC50

Completed entries (count: 7):
[
  {
    "Input Smiles": "Cc1c(CN2CCCC23CCN(C(=O)n2ccc(NS(C)(=O)=O)n2)CC3)cccc1N1CCCCC1",
    "IC50": "≤ 100 nM"
  },
  {
    "Input Smiles": "CC(=O)Nc1ccn(C(=O)N2CCN(Cc3ccc(C(F)(F)F)cc3N3CCC(F)(F)CC3)CC2)n1",
    "IC50": "≤ 100 nM"
  },
  {
    "Input Smiles": "CC(=O)Nc1ccn(C(=O)N2CCC3(CCCN3Cc3ccc(C(F)(F)F)c(C(N)=O)c3)CC2)n1",
    "IC50": "100 to 1000 nM"
  },
  {
    "Input Smiles": "CS(=O)(=O)Nc1ccn(C(=O)N2CCN(Cc3ccc(Cl)cc3N3CCOCC3)CC2)n1",
    "IC50": "100 to 1000 nM"
  },
  {
    "Input Smiles": "CC(=O)Nc1ccn(C(=O)N2CCC3(CCCN3Cc3ccc(C)c(Cl)c3)CC2)n1",
    "IC50": "≤ 100 nM"
  },
  {
    "Input Smiles": "CC(=O)Nc1ccn(C(=O)N2CCN(Cc3ccc(C(F)(F)F)c(-c4nnn[nH]4)c3)CC2)n1",
    "IC50": "≤ 100 nM"
  },
  {
    "Input Smiles": "CC(=O)Nc1ccn(C(=O)N2CCC3(CCCN3Cc3ccc(C)c(C(F)(F)F)c3)CC2)n1",
    "IC50": "≤ 100 nM"
  }
]

Can you look up IC50 on MAGL (Mus musculus) for `CC(=O)Nc1ccn(C(=O)N2CCN(Cc3ccc(Cl)cc3N3CCC4(CC3)CCN(S(C)(=O)=O)C4)CC2)n1` ? ≤ 100 nM
